Test system: SH-SY5Y
Assay: Cytotoxicity against human SH-SY5Y cells after 24 hrs
Assay type: functional, cell-based
Sorting guide: entries reporting IC50 beneath 70 µM go in the 1.0 pile, the rest go in the 0.0 pile.

Please state whether IC50 is below 70 µM for Cc1cc2c(c(=O)o1)C=C1C(C)(C)CC=CC1(C)O2 (configuration not stated) 1.0

Please state whether IC50 is below 70 µM for Cc1cc2c(c(=O)o1)C=C(c1ccccc1)C(CC(C)C)O2 (configuration not stated) 0.0

Please state whether IC50 is below 70 µM for Cc1cc2c(c(=O)o1)C=C1C(C)(C)CCCC1(C)O2 (configuration not stated) 1.0

Please state whether IC50 is below 70 µM for CC1=Cc2c(cc(C)oc2=O)OC1c1ccco1 (configuration not stated) 1.0

Please state whether IC50 is below 70 µM for Cc1cc2c(c(=O)o1)C=C(C(C)C)C(CC(C)C)O2 (configuration not stated) 1.0

Please state whether IC50 is below 70 µM for CC1=Cc2c(cc(C)oc2=O)OC1C (configuration not stated) 0.0

Please state whether IC50 is below 70 µM for CCCCCCCCC1C=Cc2c(cc(C)oc2=O)O1 (configuration not stated) 0.0

Please state whether IC50 is below 70 µM for Cc1cc2c(c(=O)o1)C=C1CCCC1O2 (configuration not stated) 0.0

Please state whether IC50 is below 70 µM for Cc1cc2c(c(=O)o1)C=C1CCCCC1(C)O2 (configuration not stated) 0.0

Please state whether IC50 is below 70 µM for CCC1C=Cc2c(cc(C)oc2=O)O1 (configuration not stated) 0.0

Please state whether IC50 is below 70 µM for CC(C)=CCCC1(C)C=Cc2c(cc(C)oc2=O)O1 (configuration not stated) 0.0
